# study.system: Hexose transporter 1 (Plasmodium falciparum) (UniProt O97467)
# method.notes: ST_JUDE_LEISH: Cytotoxicity at 2uM final concentration against transgenic Leishmania Mexicana promastigotes LmPfHT that are glucose transport deficient and complemented with the Plasmodium falciparum hexose transporter. Activity is measured by DNA content using SYBR green in vitro
# Assay type: functional
property.name: inhibition (%)
Please respond with the number in % and leave the unit unwritten.

[
  {
    "compound": "N=C1NC(=O)C(=Cc2cn(-c3ccccc3)nc2-c2cccc(S(=O)(=O)N3CCCC3)c2)S1",
    "property.name": "inhibition",
    "unit": "%",
    "result.value": 6.98
  },
  {
    "compound": "CC(C)c1ccc(N(CC(=O)N/N=C/c2ccc(C(F)(F)F)cc2)S(=O)(=O)c2ccc(C(F)(F)F)cc2)cc1",
    "property.name": "inhibition",
    "unit": "%",
    "result.value": 2.56
  },
  {
    "compound": "CN(Cc1cnc2nc(N)nc(N)c2n1)c1ccc(C(=O)N[C@H](CCC(=O)OC(C)(C)C)C(=O)N[C@@H](CCC(=O)OC(C)(C)C)C(=O)OC(C)(C)C)cc1",
    "property.name": "inhibition",
    "unit": "%",
    "result.value": 1.59
  },
  {
    "compound": "CCCC1N=C(N)N=C(N)N1c1ccc(C)c(C)c1 (stereo not given)",
    "property.name": "inhibition",
    "unit": "%",
    "result.value": -2.19
  },
  {
    "compound": "COC(=O)c1cccc(CNCc2cccc(-c3ccc(-c4nc5ccccc5[nH]4)cc3)c2)c1",
    "property.name": "inhibition",
    "unit": "%",
    "result.value": 5.76
  }
]

Fill in the blank: the reported inhibition of CNC(=O)c1c(NC(=O)c2cccs2)sc2c1CCCC2 is ____.
1.4

What do you get for COc1ccc(C(=O)Nc2ccc(Cl)cc2C(=O)Nc2ccncc2)cc1 ?
3.94

Moving on to the next compound: Oc1ccc(-c2cncc(NCc3ccc(F)c(F)c3)c2)cc1
7.41

Now this one: FC(F)(F)c1cccc(CCNc2nccc(NCc3ccccc3Cl)n2)c1
4.26

Same read-out for Cc1cc(=NN=Cc2cccc(Cl)c2)c2cc(F)ccc2[nH]1 ?
5.15

Again, but for Cc1noc(C)c1-c1ccc2c(Nc3cccc4c3-c3ccccc3C4=O)c(C(=O)NCc3ccccc3I)cnc2c1
2.33

Another: O=C(Nc1ccc2c(c1)CCN2C1CCN(Cc2ccc(O)cc2)C1)c1ccco1 (stereo not given)
2.04

----------
# study.system: Hexose transporter 1 (Plasmodium falciparum)
# method.notes: ST_JUDE_LEISH: Cytotoxicity at 2uM final concentration against transgenic Leishmania Mexicana promastigotes LmPfHT that are glucose transport deficient and complemented with the Plasmodium falciparum hexose transporter. Activity is measured by DNA content using SYBR green in vitro
# Type: functional
property.name: inhibition (%)
Entry rule: numbers only, all in %.

[
  {
    "compound": "COc1ccc(CCNCCCCCCNCCc2ccc(OC)c(OC)c2Cl)c(Cl)c1OC",
    "property.name": "inhibition",
    "result.value": -0.34
  },
  {
    "compound": "CC(C)CNCc1cccc(-c2ccccc2CNC2CCN(Cc3ccccc3)CC2)c1",
    "property.name": "inhibition",
    "result.value": 4.95
  },
  {
    "compound": "Cc1n[nH]c2cc(Nc3ccnc(Nc4ccc(CN5CCOCC5)cc4)n3)ccc12",
    "property.name": "inhibition",
    "result.value": 9.89
  },
  {
    "compound": "Cc1cc(=NN=Cc2ccccc2Cl)c2cccc(C)c2[nH]1",
    "property.name": "inhibition",
    "result.value": 2.32
  }
]

// returns reported inhibition for input Nc1nccc2ccc(-c3ccsc3)cc12
3.92

Next up: O=C(Nc1ccc(S(=O)(=O)N2CCCCCC2)cc1)c1cc(-c2ccccc2O)n[nH]1
8.12

The reported measurements were obtained from ChEMBL document CHEMBL3433997.
